These measurements were taken from PubChem BioAssay (NCI).

tested on: MDA-MB-231 breast; assay: NCI tumour cell line growth inhibition, 48 h
Would you kindly list TGI for each of these compounds?
Numbers only, in µM.

Solved cases below.
compound | measurement-target | result-units | TGI
N=c1oc2ccccc2cc1C(=O)NC12CC3CC(CC(C3)C1)C2 | MDA-MB-231 breast | µM | 47.7
COc1ccc2ncnc(Nc3ccc(OCc4ccccc4)cc3)c2c1 | MDA-MB-231 breast | µM | 11.1
O=C1CSC(=S)N1/N=C/c1ccc(Cl)c([N+](=O)[O-])c1 | MDA-MB-231 breast | µM | 48
COc1cc(/C=C2\CN(S(=O)(=O)c3ccc(C)cc3)C/C(=C\c3cc(CN4CCCC4)c(O)c(OC)c3)C2=O)cc(CN2CCCC2)c1O | MDA-MB-231 breast | µM | 3.53
CCOC(=O)CCC(NC(=O)C(N)Cc1ccc(N(CCCl)CCCl)cc1)C(=O)OCC (stereo not drawn) | MDA-MB-231 breast | µM | 3.94
O=C1c2cccc3cc([N+](=O)[O-])cc(c23)C(=O)N1Nc1ccc([N+](=O)[O-])cc1[N+](=O)[O-] | MDA-MB-231 breast | µM | 42.9
COc1ccccc1NC(=O)c1cc2cc(Br)ccc2cc1O | MDA-MB-231 breast | µM | 5.69
C#Cc1cccc(Nc2nc3cc([N+](=O)[O-])ccc3nc2Nc2ccc(O)cc2)c1 | MDA-MB-231 breast | µM | 3.8

// input: 4 compounds below; output: TGI for each
1. C[C@]12c3c4cc(NC(=O)C(=O)NCc5ccc(-c6ccccn6)nc5)cc3Oc3cc(NC(=O)C(=O)NCc5ccc(-c6ccccn6)nc5)cc(c31)OC1C=C(NC(=O)C(=O)NCc3ccc(-c5ccccn5)nc3)C=C(O4)C12 (stereo partly drawn)
2. CC(=O)CC1CCC(=O)/C=C/C(=O)OC(CC(C)=O)CCC(=O)/C=C/C(=O)O1 (stereo not drawn)
3. NC(=S)N/N=C1\c2cc(Cl)ccc2-c2c1cc(Cl)cc2[N+](=O)[O-]
4. CN(C)CC(O)c1ccc(/C=C/c2ccc(Cl)cc2)cc1 (stereo not drawn)

Data returned:
1. 27.5
2. 15
3. 34.9
4. 3.14

Record TGI for all entries; do not skip any.
1. O=C1SC(SCc2ccccc2)=NC12CC2c1ccccc1 (stereo not drawn)
2. CCOc1ccc(NC2=CC(=O)C(=O)c3ccccc32)cc1
3. O=C(Nc1cccc(C(F)(F)F)c1)Nc1cccc(C(F)(F)F)c1

Data returned:
1. 43.5
2. 54.5
3. 3.29

Look up TGI for the entries below, preserving their order.
1. COC(=O)c1cccc(C)c1C1CN=NC12Cc1cc(C)cc(C)c1C2=O (stereo not drawn)
2. COc1ccc(CN2C(=O)C(Cl)=C(Nc3cccc(C(F)(F)F)c3)C2=O)cc1
3. NC(=S)N/N=C\c1nccc2c(C(F)(F)F)cccc12
4. CC(C)(CN1CCCCC1)C(/C=C/c1ccc(Cl)cc1)=N\NC(=O)N/N=C(/C=C/c1ccc(Cl)cc1)C(C)(C)CN1CCCCC1
5. O=C1C(Br)=C(Br)C(=O)c2ccc(=O)ccc21

Data returned:
1: 77.6; 2: 18; 3: 17.6; 4: 7.21; 5: 35.9
